Values compiled from paper PMC11784839.

Target of assay: tau (Homo sapiens, UniProt P10636)
Sequence (P10636 623-695 limits assumed): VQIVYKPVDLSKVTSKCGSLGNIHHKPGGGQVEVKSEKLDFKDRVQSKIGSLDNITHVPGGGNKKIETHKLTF
Test: MCE Phenols Library screening, tau biosensor cell seeding assay (AvZ)
Format: cell-based
Condition details: Z score, replicate 1
Would you mind labelling by Z repl 1? At or over 0.01 is True, under is False.

Study these solved cases before continuing.
Molecule	Discrete label
OC[C@H]1O[C@@H](Oc2cc(O)cc(/C=C/c3ccc(O)cc3)c2)[C@H](O)[C@@H](O)[C@@H]1O (mixture of isomers) [(E/Z)-Polydatin]	True
Cc1cc(O)cc(C)c1O [2,6-Dimethylhydroquinone]	True
COc1cc(/C=C/c2ccc(O)c(O)c2)cc(OC)c1 [3'-Hydroxypterostilbene]	False

Inquiry: Evaluate O=C(O)CCc1ccc(O)c(O)c1 [Dihydrocaffeic acid] : Z repl 1 at minimum 0.01?
Reply text: True

Inquiry: Can you handle O=C(O)Cc1ccccc1O [2-Hydroxyphenylacetic acid] next?
Reply text: False

Inquiry: Can you handle "COc1ccccc1O" next?
Reply text: False

Inquiry: Can you handle COc1ccc(-c2oc3c(CC=C(C)C)c(O[C@@H]4O[C@H](CO)[C@@H](O)[C@H](O)[C@H]4O)cc(O)c3c(=O)c2O[C@@H]2O[C@@H](C)[C@H](O)[C@@H](O)[C@H]2O[C@@H]2OC[C@@H](O)[C@H](O)[C@H]2O)cc1 [Epimedin B] next?
Reply text: True

Inquiry: Can you handle "COc1ccc(C(=O)O)cc1O" next?
Reply text: True
